Source: PubChem BioAssay (EPA / NIEHS)

Experiment: BSK_SAg_SRB: Viability Assessment in the BioMAP Diversity Plus: SAg Assay (AID 2283096);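 note: cells read one day after compound addition; hits may be either gain or loss of signal compared with DMSO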
Details: primary human HUVEC with PBMC
Calls of active or inactive are those of the source. Rule for the calls: active = hit-call score of the fitted dose curve at least 0.9, where 1 is the maximum; inactive = score below 0.9.
Outcome codes: active, inactive

1. OCCCBr: inactive
2. Clc1ccc(C(c2ccc(Cl)cc2)C(Cl)Cl)cc1: active
3. Nc1ccc(Cl)cc1N: inactive
4. CC(O)CCO (centres undefined): inactive

* * *

Experiment: BSK_3C_TissueFactor: BioMAP Diversity Plus: 3C Assay for Tissue Factor Biomarker Activity (AID 2282997)
Conditions: BioMAP 3C HUVEC, tissue factor biomarker readout; actives raise or lower the signal
Activity calls are given as the source filed them. How the source made its calls: active means hit-call score of the fitted dose curve at least 0.9, where 1 is the maximum; inactive means score below 0.9.
Outcome codes: 1 = active, -1 = inactive

1) CCC[CH2][Sn]([Cl])([CH2]CCC)[CH2]CCC: 1
2) O=C(O)C1C2CCC(O2)C1C(=O)O (stereo not given): -1
3) O=C(Nc1ccccc1)c1ccccc1I: -1
4) CN(C)c1ccc(C(=O)c2ccc(N(C)C)cc2)cc1: -1
5) COC(=O)c1ccccc1N: -1
6) O=C1CCCO1: -1
7) ClCCOCCCl: -1
8) Oc1ccc2ccc3cccc4ccc1c2c34: 1
9) CS(=O)(=O)NC(=O)c1cc(Oc2ccc(C(F)(F)F)cc2Cl)ccc1[N+](=O)[O-]: -1
10) N#CC(Br)Br: -1
11) CCOC(=O)[C@]1(c2ccccc2)Oc2ccccc2[C@@H]1N: 1
12) c1ccc(C2CO2)cc1 (stereo not given): -1
13) OCCCl: -1
14) CCCCCCCCn1sccc1=O: 1
15) Cn1cc(-c2ccccc2)c(=O)c(-c2cccc(C(F)(F)F)c2)c1: -1
16) Cc1ccc(N)cc1: -1
17) CO[C@@H]1[C@H](OC(=O)NC(=O)CCl)CC[C@]2(CO2)[C@H]1[C@@]1(C)O[C@@H]1CC=C(C)C: 1
18) Cc1cc(N=Nc2ccccc2C)ccc1N: -1
19) Cc1ccc(N)c(N)c1: -1
20) Clc1ccc(C(c2ccc(Cl)cc2)C(Cl)Cl)cc1: 1
21) Cc1ccc(N=C=O)cc1N=C=O: -1
22) Nc1ccc([N+](=O)[O-])cc1: -1
23) [O-][Cl+]O: -1
24) CN(C)C(=O)Nc1ccc(Cl)cc1: -1
25) Cc1cccc(N)c1N: -1
26) CC(O)CCO (stereo not given): -1
27) C1=Cc2cccc3cccc1c23: -1
28) O=C(N[C@H](c1ccccc1)[C@@H]1CN2CCC1CC2)c1c(Cl)ccc(C(F)(F)F)c1Cl: -1
29) CC(C)COC(=O)c1ccccc1C(=O)OCC(C)C: 1
30) [As]#[In]: -1
31) CCN(CC)N=O: -1
32) Oc1ccccc1Cl: -1
33) O=[N+]([O-])C(Br)(CO)CO: 1
34) CN(C)[C@@H]1C(=O)C(C(N)=O)=C(O)[C@@]2(O)C(=O)C3=C(O)c4c(O)cccc4[C@@](C)(O)[C@H]3C[C@@H]12: -1
35) CCCCCOC(=O)c1ccccc1C(=O)OCCCCC: -1
36) Clc1ccccc1Cl: -1
37) C[C@]12C=CC3=C4CCC(=O)C=C4CC[C@H]3[C@@H]1CC[C@@H]2O: -1
38) [Cl-].[Cl-].[Hg+2]: 1
39) O=P(OCCCl)(OCCCl)OCCCl: -1
40) CCOc1cccc(C2(N3CCN(c4ccccc4)CC3)CCC(C)CC2)c1 (stereo not given): -1
